test system: HIV-1 NL4-3; test: in vitro; type: cell-based; conditions: human
Reported endpoint: selectivity ratio

Sample Cc1cc(/C=C/C#N)cc(C)c1Oc1ccc([N+](=O)[O-])c(Nc2ccc(C#N)cc2)c1 [12c] , system: HIV-1 NL4-3. Its selectivity ratio is > 4690

* * *

Could you please report measured pEC50 for the items listed next?
test system: HIV-1 A17 (K103N/Y181C); test: Multi-RTI-resistant HIV-1 A17 replication in MT-2 cells; format: cell-based; details: Human immunodeficiency virus 1, MT2
Please note pEC50 is a logarithmic value: minus log10 of concentration in mol/L. Answer with that number alone.

Per the record, CC(=O)CCc1cc(C)c(Oc2ccc(N)c(Nc3ccc(C#N)cc3)n2)c(C)c1 [13k] has pEC50 of 6.14

Short answer for Cc1cc(/C=C/C#N)cc(C)c1Oc1ccc(N)c(Nc2ccc(C#N)cc2)n1 [13m] : pEC50 was 6.70

The compound listed as C#Cc1cc(C)c(Oc2ccc(N)c(Nc3ccc(C#N)cc3)n2)c(C)c1 [13f] shows pEC50 equal to 5.84
